Biological target: IFN-αK (human, UniProt P05013 24-189)
Assay: cell-based or functional assay
measurementLabel: IC50 (pM), ISRE assay

These recorded examples may help you get a feel for the data.
>>> endpointresult("IFWM3400 (antibody, IgG1, V domains shown) VH: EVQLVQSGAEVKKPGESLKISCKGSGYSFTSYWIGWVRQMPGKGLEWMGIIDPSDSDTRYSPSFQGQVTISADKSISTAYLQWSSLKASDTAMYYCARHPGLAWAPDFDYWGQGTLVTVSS VL: DIQMTQSPSSLSASVGDRVTITCRASQSIADFLNWYQQKPGKAPKLLIYFASSLQSGVPSRFSGSGSGTDFTLTISSLQPEDFATYYCQQSHSFPLTFGQGTKVEIK")
"35 pM"
>>> endpointresult("IFWM3405 (antibody, IgG1, V domains shown) VH: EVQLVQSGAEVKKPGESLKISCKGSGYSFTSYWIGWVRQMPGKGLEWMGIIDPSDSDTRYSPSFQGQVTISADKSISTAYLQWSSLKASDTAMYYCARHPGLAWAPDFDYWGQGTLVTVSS VL: DIQMTQSPSSLSASVGDRVTITCRASQSIANNNLNWYQQKPGKAPKLLIHWASSLQSGVPSRFSGSGSGTDFTLTISSLQPEDFATYYCQQGYDTPFTFGQGTKVEIK")
"22 pM"
>>> endpointresult("IFWM3320 (antibody, IgG1, V domains shown) VH: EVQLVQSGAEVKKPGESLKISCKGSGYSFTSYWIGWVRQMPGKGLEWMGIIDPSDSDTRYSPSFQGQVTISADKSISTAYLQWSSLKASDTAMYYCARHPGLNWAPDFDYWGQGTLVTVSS VL: DIQMTQSPSSLSASVGDRVTITCRASQSINGVLNWYQQKPGKAPKLLIYFASSLQSGVPSRFSGSGSGTDFTLTISSLQPEDFATYYCQQSHDFPLTFGQGTKVEIK")
"34 pM"

Shifting focus to the binder that follows.
Give its IC50 (pM), ISRE assay value. Item: IFWM3416 (antibody, IgG1, V domains shown) VH: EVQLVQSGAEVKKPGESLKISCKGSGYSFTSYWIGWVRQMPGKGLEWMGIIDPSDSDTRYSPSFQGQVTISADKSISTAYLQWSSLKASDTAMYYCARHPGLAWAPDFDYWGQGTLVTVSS VL: DIQMTQSPSSLSASVGDRVTITCRASQSIRNTNLNWYQQKPGKAPKLLIHWASSLQSGVPSRFSGSGSGTDFTLTISSLQPEDFATYYCQQGYDTPFTFGQGTKVEIK
43 pM
